molecular target: MeCP2 (full-length) (human, UniProt P51608 1-486); assay: fluorescence anisotropy
Sequence (P51608 whole entry): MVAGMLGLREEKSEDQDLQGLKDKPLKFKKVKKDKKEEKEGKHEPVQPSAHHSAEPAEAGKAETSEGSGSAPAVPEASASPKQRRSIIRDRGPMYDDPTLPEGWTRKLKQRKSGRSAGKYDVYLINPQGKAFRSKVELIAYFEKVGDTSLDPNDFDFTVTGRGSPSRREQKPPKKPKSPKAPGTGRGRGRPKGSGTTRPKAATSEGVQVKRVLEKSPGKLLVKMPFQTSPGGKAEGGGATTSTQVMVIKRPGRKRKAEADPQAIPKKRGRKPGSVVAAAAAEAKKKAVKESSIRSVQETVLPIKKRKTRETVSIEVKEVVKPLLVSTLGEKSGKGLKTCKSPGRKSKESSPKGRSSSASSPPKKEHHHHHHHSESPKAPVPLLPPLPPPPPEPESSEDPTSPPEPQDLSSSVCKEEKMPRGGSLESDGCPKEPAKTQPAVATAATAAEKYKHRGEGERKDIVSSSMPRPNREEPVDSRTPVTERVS
reportedMetric: pKd
Conceptually, pKd converts a concentration in mol/L into minus its log10.

Prompt line: Consider the binder CpG 20 bp duplex (-/-) (dsDNA, none) DNA 1: TCTGGAACGGAATTCTTCTA DNA 2: TAGAAGAATTCCGTTCCAGA . State its measured pKd.
Response line: 8.20
